Biological target: UniProtKB Q16850
Sequence (Q16850 whole entry): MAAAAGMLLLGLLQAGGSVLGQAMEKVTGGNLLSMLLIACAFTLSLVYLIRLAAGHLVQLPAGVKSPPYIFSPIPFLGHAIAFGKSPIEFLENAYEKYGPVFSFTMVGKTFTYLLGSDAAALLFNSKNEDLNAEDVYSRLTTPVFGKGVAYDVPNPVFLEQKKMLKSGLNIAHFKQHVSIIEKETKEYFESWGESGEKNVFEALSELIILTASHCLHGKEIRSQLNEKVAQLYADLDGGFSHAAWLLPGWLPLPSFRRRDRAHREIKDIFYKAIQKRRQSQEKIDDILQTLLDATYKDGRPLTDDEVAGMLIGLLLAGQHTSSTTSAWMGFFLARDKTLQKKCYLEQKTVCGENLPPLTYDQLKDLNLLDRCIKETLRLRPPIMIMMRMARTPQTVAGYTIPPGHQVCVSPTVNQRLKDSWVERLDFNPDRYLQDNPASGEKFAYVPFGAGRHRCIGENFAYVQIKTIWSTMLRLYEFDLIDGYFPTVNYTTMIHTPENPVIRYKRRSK
Assay: Inhibition of human sterol 14-alpha-demethylase assessed as drug/enzyme molar ratio required to produce 50 percent decrease in turnover number
Task for the reader: assign each of the following compounds its reported Activity.

Which Activity is listed for Cn1cncc1[C@](N)(c1ccc(Cl)cc1)c1ccc2c(c1)c(-c1cccc(Cl)c1)cc(=O)n2C [(S)-TIPIFARNIB] ?
> 100

Which Activity is listed for CO[C@](c1ccc(Cl)cc1)(c1ccc2c(c1)c(-c1cccc(Cl)c1C)cc(=O)n2C)c1cncn1C (racemic) ?
48

Which Activity is listed for Cn1cncc1[C@@](N)(c1ccc(Cl)cc1)c1ccc2c(c1)c(-c1cccc3ccccc13)cc(=O)n2C (racemic) ?
> 100

Which Activity is listed for Cc1c(Cl)cccc1-c1cc(=O)n(C)c2ccc([C@](N)(c3ccc(Cl)cc3)c3cncn3C)cc12 (racemic) ?
> 100

Which Activity is listed for Cn1cncc1[C@@](N)(c1ccc(Cl)cc1)c1ccc2c(c1)c(-c1cccc(Cl)c1)cc(=O)n2C [TIPIFARNIB] ?
> 100

Which Activity is listed for CC(=O)N1CCN(c2ccc(OCC3COC(Cn4ccnc4)(c4ccc(Cl)cc4Cl)O3)cc2)CC1 (stereo unspecified) [KETOCONAZOLE] ?
2.3

----------
test: Terminal half life in po dosed human administered twice a day; type: ADME, organism-based; settings: in vivo, read-out: beta t1/2 (converted)
measurement.label: half-life (h)
Report as a plain number; the unit h is understood.

Which half-life is listed for Cn1cncc1[C@@](N)(c1ccc(Cl)cc1)c1ccc2c(c1)c(-c1cccc(Cl)c1)cc(=O)n2C [TIPIFARNIB] ?
16

----------
Task for the reader: assign each of the following compounds its reported Ratio IC50/EC50.
assay: Ratio of IC50 for rat recombinant protein farnesyltransferase to EC50 for Trypanosoma cruzi Tulahuen expressing beta-galactosidase
Give your answer as a number; write no unit.

Which Ratio IC50/EC50 is listed for Cc1c(Cl)cccc1-c1cc(=O)n(C)c2ccc([C@](N)(c3ccc(Cl)cc3)c3cncn3C)cc12 (racemic) ?
14

Which Ratio IC50/EC50 is listed for Cn1cncc1[C@@](N)(c1ccc2ccccc2c1)c1ccc2c(c1)c(-c1cccc(Cl)c1)cc(=O)n2C ?
0.4

Which Ratio IC50/EC50 is listed for Cc1ccccc1-c1cc(=O)n(C)c2ccc([C@](N)(c3ccc(Cl)cc3)c3cncn3C)cc12 (racemic) ?
13

Which Ratio IC50/EC50 is listed for Cc1cc([C@@](N)(c2ccc3c(c2)c(-c2cccc(Cl)c2)cc(=O)n3C)c2cncn2C)ccc1Cl (racemic) ?
0.6

Which Ratio IC50/EC50 is listed for Cn1cncc1[C@@](N)(c1ccc(Cl)cc1)c1ccc2c(c1)c(-c1ccccc1)cc(=O)n2C ?
0.3

----------
assay: Cmax in BALB/c mouse at 50 mg/kg, po; format: ADME, organism-based; set-up: dose 50 mg/kg, route oral; settings: in vivo
measurement.label: Cmax (µM)
Report as a plain number; the unit µM is understood.

Which Cmax is listed for CO[C@](c1ccc(Cl)cc1)(c1ccc2c(c1)c(-c1cccc(Cl)c1C)cc(=O)n2C)c1cncn1C (racemic) ?
5
